Would you mind telling me the reported TGI of each entry?
# Tested on: EKVX NSCLC
# PROTOCOL_DETAILS: NCI tumour cell line growth inhibition, 48 h

Please review the entries below; each comes with its answer.
Query string: So what's the measured TGI for this one? Cc1ccc(-n2cc(-c3ccc(Cl)cc3)c(C#N)c2N)cc1
Result string: 30.5 µM

Query string: So what's the measured TGI for this one? CC(C)c1cccc(C(C)C)c1NC(=O)C(=O)C1SC(=S)NC1=O (stereo not given)
Result string: > 100 µM

Query string: So what's the measured TGI for this one? CN(C)C(=O)Oc1ccc(C(=S)Nc2ccccc2)cc1Br
Result string: > 100 µM

Query string: So what's the measured TGI for this one? CCc1nc(N)nc(N)c1C#CC(C)c1cc(-c2ccnc(C)c2)c2oc(C)nc2c1 (stereo not given)
Result string: 15 µM

Query string: So what's the measured TGI for this one? Cc1nc(Nc2nc3ccccc3[nH]2)[nH]c(=O)c1CCO
Result string: > 100 µM

Below are some compounds; for each one, tell me its TGI.
1. CCOP(=O)(OCC)C(=C1C=C(C(C)(C)C)C(=O)C(C(C)(C)C)=C1)P(=O)(OCC)OCC
2. O=C1c2ccn(CCCCN(CCO)CCO)c2C(=O)c2c1c(O)c1ccccc1c2O
3. CC(=O)Nc1nnc(S(=O)(=O)NC(=S)Nc2ccc(Cl)cc2)s1
4. Nc1cc(N)c(N=Nc2cccc3c(S(=O)(=O)O)cccc23)cc1N=Nc1cc([N+](=O)[O-])ccc1O

Result string:
1: > 10 µM; 2: > 75.7 µM; 3: > 100 µM; 4: > 100 µM

###

# Tested on: PC-3 prostate
# PROTOCOL_DETAILS: NCI tumour cell line growth inhibition, 48 h
Where a SMILES comes first, the peptide text is derived from it.
Would you mind telling me the reported TGI of each entry?

Please review the entries below; each comes with its answer.
Query string: So what's the measured TGI for this one? Cn1nc(C(=O)N2CC(CCl)c3c2cc([N+](=O)[O-])c2ccccc32)cc1NC(=O)Nc1cc(C(=O)N2CC(CCl)c3c2cc([N+](=O)[O-])c2ccccc32)nn1C (stereo not given)
Result string: > 100 µM

Query string: So what's the measured TGI for this one? O=C1COCCN1c1ccc(NCc2cn(C(=O)c3ccc(Cl)cc3)c3ccccc23)cc1
Result string: 49.5 µM

Query string: So what's the measured TGI for this one? Cn1ncnc1C1c2n[nH]c(=O)c3cc(F)cc(c23)NC1c1ccc(F)cc1 (stereo not given)
Result string: > 100 µM

Query string: So what's the measured TGI for this one? NS(=O)(=O)c1ccc(N2N=C(c3cccs3)CC2c2ccccc2O)cc1 (stereo not given)
Result string: 4.38 µM

Query string: So what's the measured TGI for this one? COC(=O)C1(C)OC(C)=NC1(C(=O)OC)C(=O)OC (stereo not given)
Result string: > 100 µM

Below are some compounds; for each one, tell me its TGI.
1. COC1C(OC(N)=O)C(O)C(Oc2ccc3c(O)c(NC(=O)c4ccc(O)c(CC=C(C)C)c4)c(=O)oc3c2C)OC1(C)C (stereo not given)
2. CNc1ncc2cc(Oc3ccc(F)cc3F)c(=O)n(C)c2n1
3. CC(=O)NC(CO)C(=O)NC(Cc1ccc(O)cc1)C(=O)NCC(N)=O (stereo not drawn) (Ac-Ser-Tyr-Gly-NH2; configuration not given here)

Result string:
["> 100 µM", "> 25 µM", "> 100 µM"]

Below are some compounds; for each one, tell me its TGI.
1. O=C(CN1C(=O)S/C(=C\C(Cl)=C\c2ccccc2)C1=O)NCCCn1ccnc1
2. O=c1[nH]nc(-c2ccccc2)c2c(-c3ccccc3)onc12
3. O=C(O)CO/N=C1/C(c2c(O)[nH]c3ccccc23)=Nc2ccccc21
4. COc1cc(NC(=O)c2cc(O)c(C/C=C(\C)CCC=C(C)C)c(O)c2)cc2c1O[C@]1(C)CC[C@@H](O)C(C)(C)[C@H]1C2
5. O=C(Cn1c2ccccc2c2ccncc21)N/N=C\c1ccc2ccccc2c1
6. CCc1n[nH]c(=S)n1/N=C\c1ccc(-c2ccccc2[N+](=O)[O-])o1
7. Cc1cc(Cl)ccc1Nc1nc(C(F)(F)F)ccc1C(=O)Nc1cccc(C(F)(F)F)c1
8. CC/C=C/C(/C=C/C[C@]1(CC)C[C@H](CC)[C@H](CC(=O)O)OO1)CC (stereo not given in full)

Result string:
1. 5.74 µM
2. > 100 µM
3. > 100 µM
4. 7.16 µM
5. > 100 µM
6. > 100 µM
7. 15.5 µM
8. 3.69 µM

Below are some compounds; for each one, tell me its TGI.
1. O=C(NN1C(=O)CSC12CCC(c1ccccc1)CC2)c1[nH]c2ccc(F)cc2c1-c1ccccc1 (stereo not given)
2. Nc1nc(NCCOCP(=O)(O)O)c(N)c(=O)[nH]1
3. Nc1cc(N)c(N=Nc2cccc3c(S(=O)(=O)O)cccc23)cc1N=Nc1cc([N+](=O)[O-])ccc1O
4. COc1cc2nc(N3CCC[C@@H](NC4=CC(=O)c5ccccc5C4=O)C3)nc(N)c2cc1OC

Result string:
39.6 µM
> 100 µM
> 100 µM
4.16 µM

Below are some compounds; for each one, tell me its TGI.
1. O=C1NC(c2ccccc2)N=C2Oc3ccccc3C=C12 (stereo not given)
2. COc1ccc2c(c1OC)C(=O)O[C@@H]2[C@H]1c2c(c(Br)c3c(c2OC)OCO3)CCN1C
3. CCOP(=O)(OCC)C(=C1C=C(C(C)(C)C)C(=O)C(C(C)(C)C)=C1)P(=O)(OCC)OCC
4. Oc1ccc(O)c2c1C1(Cl)C(Cl)=C(Cl)C2(Cl)C1(Cl)Cl
5. O=C1c2c(ccc3c2CCCC3)CC1Cc1ccc2c(c1)CCCC2 (stereo not given)
6. CCC(=O)c1c(C(F)(F)F)n([O-])c2ccccc2[n+]1=O
7. COc1ccc(N2C(=O)C3c4[nH]c5ccc(OCc6ccccc6)cc5c4C4CCC(C(C)C)CC4C3C2=O)cc1 (stereo not given)
8. O=CN1N=C(c2ccc(Nc3ccnc4cc(Cl)ccc34)cc2)CC1c1ccc(Cl)cc1 (stereo not given)

Result string:
1. > 100 µM
2. > 100 µM
3. > 10 µM
4. 16.4 µM
5. > 100 µM
6. 5.34 µM
7. > 100 µM
8. > 100 µM

Below are some compounds; for each one, tell me its TGI.
1. COc1cc2c(cc1OCCCCCn1c3ccccc3c3ccccc31)N=C[C@@H]1CCCN1C2=O
2. COc1ccc(OC)c(/C=N/N=C2\C(=O)Nc3c(Cl)cc(Cl)cc32)c1
3. Cc1[nH]c2ccccc2c1C1=CC(=O)N(c2ccccc2)C1=O
4. Cc1ccc(N2C(=O)C(=O)N(/N=C3\C(=O)Nc4ccccc43)C2=S)cc1
5. NCCCCCNOCCCN
6. Clc1ccc(/C=C/c2nc(Cl)c(-c3ccc(Cl)cc3)c(Cl)n2)cc1

Result string:
1. 7.73 µM
2. > 100 µM
3. > 100 µM
4. > 100 µM
5. > 100 µM
6. > 100 µM

Below are some compounds; for each one, tell me its TGI.
1. O=C(O)CCc1nc2cc3ccccc3cc2[nH]c1=O
2. CC(=O)Oc1cc(S(=O)(=O)Nc2n[nH]c(N)n2)c(S)cc1Cl
3. CC(Nc1n[nH]c(=O)c2c1nnn2Cc1ccccc1)c1ccccc1 (stereo not given)
4. COc1ccc2c(c1)C=C1CSCC3=Cc4cc(OC)ccc4OC13O2
5. CNC(=O)c1cncc(/C=C/c2c(Cl)cccc2Cl)c1

Result string:
> 100 µM
> 100 µM
> 100 µM
> 100 µM
> 25 µM

Query string: So what's the measured TGI for this one? CN(C)C(=S)SCC(N)=O
Result string: > 100 µM
